B1: library; numbered along this chain (parent)
chain: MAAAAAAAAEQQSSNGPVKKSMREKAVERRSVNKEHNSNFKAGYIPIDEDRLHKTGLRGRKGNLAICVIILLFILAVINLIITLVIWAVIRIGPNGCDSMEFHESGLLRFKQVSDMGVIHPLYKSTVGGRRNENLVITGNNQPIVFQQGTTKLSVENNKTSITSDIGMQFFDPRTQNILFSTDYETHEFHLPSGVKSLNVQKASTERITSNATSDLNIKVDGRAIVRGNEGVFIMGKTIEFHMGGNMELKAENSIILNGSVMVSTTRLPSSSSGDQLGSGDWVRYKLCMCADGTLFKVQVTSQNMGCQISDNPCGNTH

- Variants of: B1
- Test details: SGCB cell-surface expression functional score (HA stain, bin4 vs bin1, normalised to synonymous) (log10 ratio); higher = more cell-surface SGCB (functional)
Recorded measurements of SGCB cell-surface expression functional score (log10), one per entry
Give your answer as a number; write no unit.

Reference set (3 entries):
>  <Variant key>
A76S

>  <Assay value>
0.05

$$$$
>  <Variant key>
D115P

>  <Assay value>
-1.39

$$$$
>  <Variant key>
G62S

>  <Assay value>
0.18

$$$$

Let us examine a further case.
What does the data say about its SGCB cell-surface expression functional score (log10)? Entry: R60C
0.47

Values were extracted from the supplement of paper PMC10266784.
